Below, each entry is listed with its recorded IC50.
Molecular target: CDK5/CDK5R1 (Homo sapiens, UniProt Q00535)
Sequence (Q00535 whole entry): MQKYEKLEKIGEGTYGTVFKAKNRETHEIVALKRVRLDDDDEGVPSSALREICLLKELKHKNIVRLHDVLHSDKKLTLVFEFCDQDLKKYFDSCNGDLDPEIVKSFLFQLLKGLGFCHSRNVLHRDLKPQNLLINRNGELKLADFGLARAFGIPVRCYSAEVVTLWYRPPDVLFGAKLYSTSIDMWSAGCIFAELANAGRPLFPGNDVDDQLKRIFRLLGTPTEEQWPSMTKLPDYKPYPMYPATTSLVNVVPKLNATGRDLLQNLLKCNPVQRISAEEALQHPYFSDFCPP
Sequence (Q15078 whole entry partner): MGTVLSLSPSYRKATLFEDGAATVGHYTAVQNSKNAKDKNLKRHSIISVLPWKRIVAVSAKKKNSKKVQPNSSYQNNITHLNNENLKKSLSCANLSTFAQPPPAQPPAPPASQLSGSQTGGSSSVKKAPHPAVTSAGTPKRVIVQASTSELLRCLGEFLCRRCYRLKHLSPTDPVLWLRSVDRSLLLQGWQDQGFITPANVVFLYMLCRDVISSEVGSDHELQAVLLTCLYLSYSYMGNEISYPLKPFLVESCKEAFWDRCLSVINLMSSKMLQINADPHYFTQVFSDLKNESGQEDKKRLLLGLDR
Assay: NanoBRET live-cell target engagement, CDK5-NanoLuc/CDK5R1 in HEK-293
Assay type: binding
Settings: CDK5/CDK5R1; read-out: IC50 (nM) Replicate 2
Lab book: enter the figure in nM, no units written.

CC(C)c1cnn2c(NCc3ccccc3)cc(N[C@@H](CO)[C@H](O)CO)nc12 = 42

Okay, now this compound:
Please fill in: IC50 reported for CNC1CCN(C(=O)c2ccc(Nc3ncc(F)c(-c4cnc(C)n4C(C)C)n3)cc2)C1 (centres unmarked) = 12

###

Molecular target: CDK2/Cyclin E1 (Homo sapiens)
Assay: NanoBRET live-cell target engagement, CDK2-NanoLuc/Cyclin E1 in HEK-293
Format: binding
Conditions: average (± SEM where n=3); read-out: CDK2/E1 IC50
Readout Kind: IC50 (µM)
Lab book: enter the figure in µM, no units written.

Please fill in: IC50 reported for COCCN1CCN(Cc2ccc(-c3n[nH]c4c3C(=O)c3c(NC(=O)NN5CCOCC5)cccc3-4)cc2)CC1 [RGB286638] = 0.014
